Assay: qHTS screen for small molecules that induce genotoxicity in human embryonic kidney (HEK293T) cells expressing luciferase-tagged ELG1; note: nearly all actives have a fitted effect of over 60% in size; note: potency is the fitted concentration of half-maximal effect
Conditions: HEK293T ELG1-luciferase reporter, luminescence, 16 h; series mostly up to 46 µM
The whole screen tested about 330,000 compounds, of which about 4,200 (1.3%) were called active. Another 6% or so got no clear call; they are omitted. The sample as a whole holds a higher share of actives than the screen did.
Recorded Endpoint: Potency

Compound	Recorded Endpoint	Result
O=C(NCCCn1ccnc1)c1ccccc1F	Potency	inactive
O=C(Nc1cccnc1Cl)c1cc(-c2cccc(Cl)c2)on1	Potency	inactive
CCCc1cc(C(=O)Nc2ccc(Cl)cn2)cs1	Potency	2.31 µM (active)
O=C(c1cnccn1)N1CCN(S(=O)(=O)c2cccc(Cl)c2)CC1	Potency	inactive
CCN(C[C@H]1N[C@@](Cc2ccccc2)(C(=O)OC)[C@H]2C(=O)N(Cc3ccccc3)C(=O)[C@@H]12)C(=O)c1ccc(C)cc1	Potency	inactive
Cc1cccc(NC(=O)Nc2cccc(Oc3c(F)c(F)c(F)c(F)c3F)c2)c1	Potency	inactive
O=C(CSc1ncn[nH]1)Nc1ccc(Br)cc1Br	Potency	inactive
O=C(N[C@H]1C/C=C\C(c2cccc(F)c2)N(Cc2ccccc2)C(=O)C1)OCC1c2ccccc2-c2ccccc21 (stereo partly drawn)	Potency	inactive
COc1cccc(-c2nc3cc(C)ccc3o2)c1	Potency	1.3 µM (active)
Cc1ccc(C)c(S(=O)(=O)N2CCN(c3ncnc4sccc34)CC2)c1	Potency	inactive
CC(=O)c1ccc(NC(=O)CSc2nc3ccccc3c(=O)n2CCCN2CCOCC2)cc1	Potency	inactive
COc1c(Cl)cc(C(=O)Nc2ccc(Cl)cn2)cc1Cl	Potency	inactive
Cc1cc(NC(=O)CSc2ncc(C(F)(F)F)cc2Cl)no1	Potency	inactive
Cc1cccc(N2O[C@H]3C=CC2CCCC3)n1	Potency	inactive
O=C(Nc1ccc(Cl)cn1)c1ccc2c(c1)OCCO2	Potency	1.16 µM (active)
C=CC1=C(C(=O)O)N2C(=O)[C@@H](NC(=O)/C(=N\OCC(=O)O)c3csc(N)n3)[C@H]2SC1	Potency	inactive
O=C(NCCCn1ccnc1)c1cc(-c2ccccc2)on1	Potency	14.6 µM (active)
O=C(NC1CCCC1)c1cc(-c2ccccc2)on1	Potency	9.2 µM (active)
O=C(COC(=O)COc1ccccc1F)Nc1cccc(S(=O)(=O)N2CCCCC2)c1	Potency	inactive
O=C(NC1CCCCC1)c1ccc(-c2ccc(Cl)cc2)o1	Potency	inactive
COc1ccc(C(=O)NC(=S)Nc2ccc(Cl)cn2)cc1OC	Potency	inactive
Cc1nc(NC(=O)c2ccc3c(c2)OCCO3)ccc1Br	Potency	inactive
Cc1ccoc1C(=O)Nc1cccc(Oc2ccccc2)c1	Potency	9.2 µM (active)
